System: Swiss mice, Sarcoma 180 sc, mean tumor weight T/C
PROTOCOL_DESCRIPTION: NCI In Vivo Anticancer Drug Screen. Data for tumor model Sarcoma 180 (subcutaneous) in Swiss mice
DETAILS: endpoint: mean tumor weight; dose: 1.0 mg/kg/injection; schedule: Q01DX007 (ip); vehicle: carboxymethylcellulose (CMC); higher = larger tumour
VALUE_KIND: T/C

Worked cases, answers included:
[
  {
    "MOLECULE": "Nc1n[se]nc1C(=O)O",
    "VALUE_KIND": "T/C",
    "MEASURED": "117 % of control"
  },
  {
    "MOLECULE": "O=C(O)c1ccc(N=NSc2ncnc3nc[nH]c23)cc1O",
    "VALUE_KIND": "T/C",
    "MEASURED": "108 % of control"
  },
  {
    "MOLECULE": "COc1ccc2c3c(c4cc(OC)c(OC)cc4c2c1)C[C@H]1CCCCN1C3",
    "VALUE_KIND": "T/C",
    "MEASURED": "65 % of control"
  }
]

// query I'm curious: which T/C was measured for CCC(=O)OCC1OC(n2cnc3c(=S)nc(N)[nH]c32)C(OC(=O)CC)C1OC(=O)CC (stereo not given) tested on Swiss mice, Sarcoma 180 sc, mean tumor weight T/C?
// result 61 % of control

// query Moving on to the next molecule: CN(Cc1cnc2nc(N)nc(N)c2n1)c1ccc(C(=O)N[C@@H](CCC(=O)O)C(=O)O)cc1
// result 107 % of control

// query Moving on to the next molecule: O=C(Nc1ccc(C2=NCCCN2)cc1)c1ccc(C(=O)Nc2ccc(C3=NCCCN3)cc2)cc1
// result 80 % of control

* * *

System: Swiss mice, Sarcoma 180 sc, mean tumor weight T/C
PROTOCOL_DESCRIPTION: NCI In Vivo Anticancer Drug Screen. Data for tumor model Sarcoma 180 (subcutaneous) in Swiss mice
DETAILS: endpoint: mean tumor weight; dose: 5.0 mg/kg/injection; schedule: Q01DX007 (ip); vehicle: carboxymethylcellulose (CMC); higher = larger tumour
Entries and their T/C

Worked cases, answers included:
[
  {
    "MOLECULE": "O=CNc1c(Cl)c(Cl)c2c(c1Cl)Cc1cc(Cl)ccc1-2",
    "T/C": "70 % of control"
  },
  {
    "MOLECULE": "CSc1nc(C)c(Br)c(Sc2nc(N)nc3nc[nH]c23)n1",
    "T/C": "84 % of control"
  },
  {
    "MOLECULE": "CCOC(=O)Nc1ccc2c(c1)/C(=N\\NC(N)=S)c1ccccc1-2",
    "T/C": "86 % of control"
  }
]

Shifting focus to the molecule that follows.
// query I'm curious: which T/C was measured for CCOC(=O)C(N)Cc1ccc(N(CCCl)CCCl)cc1 (stereo not drawn) tested on Swiss mice, Sarcoma 180 sc, mean tumor weight T/C?
// result 90 % of control

* * *

System: Swiss mice, Sarcoma 180 sc, mean tumor weight T/C
PROTOCOL_DESCRIPTION: NCI In Vivo Anticancer Drug Screen. Data for tumor model Sarcoma 180 (subcutaneous) in Swiss mice
DETAILS: endpoint: mean tumor weight; dose: 750.0 mg/kg/injection; schedule: Q01DX007 (ip); vehicle: other; higher = larger tumour
VALUE_KIND: T/C

Worked cases, answers included:
[
  {
    "MOLECULE": "CC(=O)OCC1OC(n2ncc(=O)[nH]c2=O)C(OC(C)=O)C1OC(C)=O (stereo unspecified)",
    "T/C": "93 % of control"
  },
  {
    "MOLECULE": "Cc1n[nH]c(=O)[nH]c1=O",
    "T/C": "83 % of control"
  },
  {
    "MOLECULE": "OCC(F)(F)C(F)(F)C(F)(F)F",
    "T/C": "90 % of control"
  },
  {
    "MOLECULE": "CC(=O)Nc1c(Cl)c(Cl)c2c(c1Cl)Cc1cc(F)ccc1-2",
    "T/C": "32 % of control"
  },
  {
    "MOLECULE": "O=C(Nc1ccc2c(c1)Cc1cccc(NC(=O)C(Cl)Cl)c1-2)C(Cl)Cl",
    "T/C": "89 % of control"
  }
]

Shifting focus to the molecule that follows.
// query Please give the measured T/C for this molecule: Clc1ccc2c(c1)C(Br)c1cc(Cl)cc(Cl)c1-2 (stereo unspecified)
// result 21 % of control
